# measured_target: Human BCMA (human) (UniProt Q02223)
# method_summary: SPR, IgG immobilised, huBCMA analyte, 37 C
test_readout: kon (M⁻¹ s⁻¹)
// return numeric value only (unit: M⁻¹ s⁻¹, not printed)

Prompt line: Data request, read-out kon, for L3.PY/L1.PH/H2.HA (antibody, V domains shown, IgG) VH: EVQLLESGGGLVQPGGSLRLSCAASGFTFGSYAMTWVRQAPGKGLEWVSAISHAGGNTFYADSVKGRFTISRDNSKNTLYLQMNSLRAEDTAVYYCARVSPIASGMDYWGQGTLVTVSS VL: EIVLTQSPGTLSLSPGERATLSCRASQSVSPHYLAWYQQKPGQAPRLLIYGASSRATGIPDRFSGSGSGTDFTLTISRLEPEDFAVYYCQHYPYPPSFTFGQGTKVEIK
Response line: 2.37e+06

Prompt line: Try this binder too: L3.PY/L3.KY/H3.TAQ (antibody, V domains shown, IgG) VH: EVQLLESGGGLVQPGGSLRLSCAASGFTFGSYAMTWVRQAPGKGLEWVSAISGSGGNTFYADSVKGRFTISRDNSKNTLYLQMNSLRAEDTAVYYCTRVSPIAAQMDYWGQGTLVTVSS VL: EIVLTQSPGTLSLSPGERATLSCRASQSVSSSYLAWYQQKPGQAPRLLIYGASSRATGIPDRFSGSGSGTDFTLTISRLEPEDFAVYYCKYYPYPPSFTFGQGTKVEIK
Response line: 2.79e+06

Prompt line: Try this binder too: L3.PY/L1.PH/H3.AE (antibody, V domains shown, IgG) VH: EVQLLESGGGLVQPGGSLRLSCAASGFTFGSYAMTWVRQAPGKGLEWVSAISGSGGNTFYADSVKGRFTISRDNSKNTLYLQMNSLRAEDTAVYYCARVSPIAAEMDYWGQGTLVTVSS VL: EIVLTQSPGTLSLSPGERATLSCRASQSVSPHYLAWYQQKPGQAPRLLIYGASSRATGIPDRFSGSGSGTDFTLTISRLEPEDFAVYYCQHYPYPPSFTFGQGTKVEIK
Response line: 3.68e+06

Prompt line: Try this binder too: L3.PY/L1.FF/H3.AE (antibody, V domains shown, IgG) VH: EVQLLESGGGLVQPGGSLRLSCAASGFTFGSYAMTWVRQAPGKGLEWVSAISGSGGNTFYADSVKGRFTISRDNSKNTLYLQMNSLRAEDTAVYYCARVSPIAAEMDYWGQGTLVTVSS VL: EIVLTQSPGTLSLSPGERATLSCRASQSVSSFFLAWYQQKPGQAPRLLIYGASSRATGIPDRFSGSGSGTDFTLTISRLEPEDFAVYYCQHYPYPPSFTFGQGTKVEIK
Response line: 3.82e+06

Prompt line: Try this binder too: L3.PY/L3.KF/H3.AQ (antibody, V domains shown, IgG) VH: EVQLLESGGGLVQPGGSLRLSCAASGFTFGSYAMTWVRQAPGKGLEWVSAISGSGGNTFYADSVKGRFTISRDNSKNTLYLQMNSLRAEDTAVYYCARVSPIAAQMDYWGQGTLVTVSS VL: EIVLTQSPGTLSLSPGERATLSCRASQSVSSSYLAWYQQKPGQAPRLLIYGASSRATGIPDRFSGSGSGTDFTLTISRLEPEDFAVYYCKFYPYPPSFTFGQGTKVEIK
Response line: 3.48e+06
